experimental.system: Sodium- and chloride-dependent GABA transporter 2 (Mus musculus, UniProt P31649)
Sequence (P31649 whole entry): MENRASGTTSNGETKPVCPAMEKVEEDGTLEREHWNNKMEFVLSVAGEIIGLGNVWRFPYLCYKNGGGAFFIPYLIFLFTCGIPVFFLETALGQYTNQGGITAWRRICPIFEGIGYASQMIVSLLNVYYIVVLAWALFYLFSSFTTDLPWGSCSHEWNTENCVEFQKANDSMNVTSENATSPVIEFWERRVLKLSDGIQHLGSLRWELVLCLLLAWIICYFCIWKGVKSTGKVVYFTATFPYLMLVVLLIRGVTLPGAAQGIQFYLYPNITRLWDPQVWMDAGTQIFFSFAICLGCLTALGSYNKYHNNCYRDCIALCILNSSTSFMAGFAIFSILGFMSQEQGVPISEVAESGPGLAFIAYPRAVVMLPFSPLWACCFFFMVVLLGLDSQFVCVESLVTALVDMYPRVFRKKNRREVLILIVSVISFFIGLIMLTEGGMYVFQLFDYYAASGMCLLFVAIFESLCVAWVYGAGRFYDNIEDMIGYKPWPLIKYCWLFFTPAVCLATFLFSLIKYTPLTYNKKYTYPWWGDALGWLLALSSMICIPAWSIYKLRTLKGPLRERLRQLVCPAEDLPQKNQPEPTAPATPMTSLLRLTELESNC
test.method.notes: Inhibition of mouse GAT2 expressed in HEK293 cell line assessed as inhibition of [3H]GABA uptake measured after 35 mins by liquid scintillation method
Listing of recorded IC50 by entry.
Kindly provide the numeric value in µM only, without the unit symbol.

compound | IC50 (µM)
Cc1ccsc1C(=CCCN(C)C(CCO)C(=O)NCc1ccccc1Cl)c1sccc1C (stereo not drawn) | 10.5

Need IC50 of `O=C(O)C1=CCCN(CCON=C(c2ccccc2)c2ccccc2)C1` , thanks. 631

Need IC50 of Cc1ccsc1C(=CCCN(C)C(CCO)C(=O)NCc1ccccc1)c1sccc1C (stereo not drawn) , thanks. 20.4
